molecules and their reported AUC(0-t)
ASSAY: Pharmacokinetic study, oral gavage in fasted male Sprague-Dawley rats
Format: in vivo, rat
EXPERIMENTAL CONTEXT: male, Sprague-Dawley, rat, plasma, po, 10 mg/kg, individual rats; oral gavage 10 mg/kg
Number only, in ng·h/mL; omit the unit.

SMILES STRING	QUANTITY	EXPERIMENTAL VALUE
CNCC(=O)NCCCN1CCC(CCCN2c3ccccc3Sc3ccc(C(F)(F)F)cc32)CC1	AUC(0-t)	65.2

Now consider the entry below.
Q. I'd like to know its AUC(0-t). The molecule in question is NCC(=O)NCCCN1CCC(CCCN2c3ccccc3Sc3ccc(C(F)(F)F)cc32)CC1
A. 112

====

ASSAY: Pharmacokinetic study, oral gavage in fasted male Sprague-Dawley rats
Assay type: in vivo, rat
EXPERIMENTAL CONTEXT: male, Sprague-Dawley, rat, plasma, po, 10 mg/kg, individual rats; oral gavage 10 mg/kg; read-out: tmax
QUANTITY: Tmax (h)
Number only, in h; omit the unit.

COMPOUND	EXPERIMENTAL VALUE
CNCC(=O)NCCCN1CCC(CCCN2c3ccccc3Sc3ccc(C(F)(F)F)cc32)CC1 [ICI-1259]	2

Now consider the entry below.
Q. I'd like to know its Tmax. The compound in question is NCC(=O)NCCCN1CCC(CCCN2c3ccccc3Sc3ccc(C(F)(F)F)cc32)CC1 [ICI-1260]
A. 2

====

ASSAY: Pharmacokinetic study, oral gavage in fasted male Sprague-Dawley rats
Assay type: in vivo, rat
EXPERIMENTAL CONTEXT: male, Sprague-Dawley, rat, plasma, po, 10 mg/kg, mean; oral gavage 10 mg/kg; 6.0 hr
Protocol: ICI-1259 and ICI-1260 were supplied as powders and stored frozen until used. Dosing solutions in phosphate buffered saline were prepared at 1 mg/ml. These solutions were then evaluated in fasted male Sprague-Dawley rats. The rats were fitted with a jugular vein cannula for blood sampling. Rats were also fitted with an additional jugular vein cannula, or intradudodenal cannula as needed. Rats were given a commercial rodent diet ad libitum prior to study initiation. […]
QUANTITY: concentration at 6 hr (ng/mL)
Number only, in ng/mL; omit the unit.

SMILES STRING	UNITS SYMBOL	concentration at 6 hr
CNCC(=O)NCCCN1CCC(CCCN2c3ccccc3Sc3ccc(C(F)(F)F)cc32)CC1	ng/mL	8.46

Q. I'd like to know its concentration at 6 hr. The compound in question is NCC(=O)NCCCN1CCC(CCCN2c3ccccc3Sc3ccc(C(F)(F)F)cc32)CC1
A. 12.8

====

ASSAY: Pharmacokinetic study, oral gavage in fasted male Sprague-Dawley rats
Format: in vivo, rat
EXPERIMENTAL CONTEXT: male, Sprague-Dawley, rat, plasma, po, 10 mg/kg, individual rats; oral gavage 10 mg/kg; read-out: Cmax
QUANTITY: Cmax (ng/mL)
Number only, in ng/mL; omit the unit.

SMILES STRING	QUANTITY	EXPERIMENTAL VALUE
NCC(=O)NCCCN1CCC(CCCN2c3ccccc3Sc3ccc(C(F)(F)F)cc32)CC1	Cmax	33.8

Now consider the entry below.
Q. I'd like to know its Cmax. The compound in question is CNCC(=O)NCCCN1CCC(CCCN2c3ccccc3Sc3ccc(C(F)(F)F)cc32)CC1
A. 16.6
